For each entry below, report its growth inhibition value.
# testMethodNotes: NCI Yeast Anticancer Drug Screen. Data for the sgs1 mgt1 strain (AID 161);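 also: 0% = growth of cultures given vehicle only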
# testParameters: S. cerevisiae sgs1 mgt1 strain, at 50.0 µM, active compounds read high
This is part of a sample that, as a whole, favours compounds with a hit. Of some 79,000 tested, about 15% had one in any assay.
Write down the numeric answer in % and omit the unit.

growth inhibition in this record for COc1ccc(C2OC(=N)C(=S)N2C)cc1O (stereo not given) : -13.2

growth inhibition in this record for COc1ccc(-c2c(C(C)=O)c(-c3ccccc3)n(C3OC(CO)C(O)C(O)C3O)c(=S)c2C#N)cc1 (stereo not given) : 6.6

growth inhibition in this record for O=c1nc(N2CCCCCCC2)ccn1C1OC(CO)C(O)C1O (stereo not given) : 8.95

growth inhibition in this record for COC(=O)[C@@H]1[C@H](OC(C)=O)CCC2[C@@]3(C[C@@H](c4ccoc4)O[C@@H]3OC)[C@H](C)CC[C@]21C(=O)OC (stereo not given in full) : -39

growth inhibition in this record for CC(=O)[CH-]C(=O)c1ccccc1.CC(=O)[CH-]C(=O)c1ccccc1.CC12CC3(C)CC(C)(C1)CC([O-])(C2)C3.CC[O-].[Ti+4] : 28.6

growth inhibition in this record for CC1(C)CCC(=O)OC1C[N+](=O)[O-] (stereo not given) : 24.2

growth inhibition in this record for CCCCCCC(=O)/C=C/c1cc(Cl)cc(Cl)c1OCOC : 25.1

growth inhibition in this record for COC(=NC(C)C)NC(C)C : 5.65

growth inhibition in this record for Cc1ccnc(NS(=O)(=O)c2ccc(N=Cc3ccccc3O)cc2)n1 : -13.9

growth inhibition in this record for Cc1cn(C2CC(N)C(C(=O)NCC(=O)O)O2)c(=O)[nH]c1=O (stereo not given) : -0.6
